- ASSAY METHOD TEXT: yeast growth modulation, basal conditions, primary screen, YJM789 clinical isolate, OD600, 24 h (AID 1089);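 further: growth of clinical yeast isolate S. cerevisiae YJM 789 seeded 1000 cells per well; test concentration not given here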
- APPLIED CONDITIONS: S. cerevisiae YJM789 growth, higher = more signal, called active from +8 up or from −8 down
Calls of active or inactive are those of the source.
The following compounds are listed with their measured z-score values.

Reference set, count: 5
[ask] So what's the measured z-score for this one? COCCOC(=O)N1C(=O)[C@@]2(c3cc(C#CCNC(N)=O)ccc31)[C@H](c1ccc(OCCO)cc1)N1[C@H](c3ccccc3)[C@H](c3ccccc3)OC(=O)[C@H]1[C@@H]2C(N)=O
[reply] 2.18 (inactive)

[ask] Recorded z-score for COCCOC(=O)N1C(=O)[C@@]2(c3cc(C#CCNC(N)=O)ccc31)[C@H](c1ccc(O)cc1)N1[C@H](c3ccccc3)[C@H](c3ccccc3)OC(=O)[C@H]1[C@@H]2C(=O)N1CCN(c2ncccn2)CC1 , please?
[reply] 1.74 (inactive)

[ask] May I ask what z-score has been recorded for O=C1C[C@@](C(=O)NCC(F)(F)F)(c2ccc([N+](=O)[O-])cc2)[C@@H](c2ccc(CO)cc2)N1CC12CC3CC(CC(C3)C1)C2 ?
[reply] 0.263 (inactive)

[ask] Quick one: z-score of Cc1cccc([C@H]2C[C@H]3C(I)=C[C@@H]2C(=O)[C@]32CO2)c1 ?
[reply] -2.5 (inactive)

[ask] Quick one: z-score of CC(C)N1CC=CC23O[C@@H]4/C=C\CCCOC(=O)C4[C@H]2C(=O)N(CCCCCCO)[C@@H]3C1=O (stereo partly specified) ?
[reply] 0.226 (inactive)

Turning to the following compound.
[ask] Would you mind telling me what z-score value was observed for C=CCC(OC(C)=O)[C@@H]1[C@@H](N(Cc2ccc(-c3cccc(C(F)(F)F)c3)o2)C(=O)Cc2ccc(OC)cc2)c2cc(OCCCO)ccc2N1C(=O)Cc1ccc2ccccc2c1 (stereo partly specified) ?
[reply] 0.807 (inactive)
